Reference source for all entries: ChEMBL document CHEMBL4000234

Reported CC50 values for the following compounds.
Tested on: CCRF-CEM
ASSAY METHOD TEXT: Cytotoxicity against human CEM cells assessed as growth inhibition by CellTiter 96 non-radioactive cell proliferation colorimetric assay
Type: cell-based
CONDITION CONTEXT: ccrf-cem
ENDPOINT: CC50 (µM)

COMPOUND	TARGET UNDER TEST	ENDPOINT	UNIT ABBREVIATION	VALUE COMPARATOR	ENDPOINT RESULT
CC1(C)CC(=O)c2c(Cc3ccc(F)cc3Cl)nc(-c3ccccn3)nc2C1	CCRF-CEM	CC50	µM	=	9
CCS(=O)(=O)CC1=C(C(=O)OC)C(c2ccc(F)cc2Cl)N=C(c2ccccn2)N1 (stereo not given)	CCRF-CEM	CC50	µM	=	39
COC(=O)C1=C(CS(=O)(=O)Cc2ccc(C)cc2)NC(c2ccccn2)=NC1c1ccc(F)cc1Cl (stereo not given)	CCRF-CEM	CC50	µM	=	47
COC(=O)C1=C(CN2CCOCC2)NC(c2ccccn2)=NC1c1ccc(F)cc1Cl (racemic)	CCRF-CEM	CC50	µM	>	100
COC(=O)c1c(C)nc(-c2ccccn2)nc1Cc1ccccc1	CCRF-CEM	CC50	µM	=	4
